# Test system: HIV-1LAI 4XAZT/K103N
# Assay summary: p24 reduction assay in MT-2 cells, 4XAZT/K103N
# Format: cell-based
# Condition parameters: Human immunodeficiency virus 1, MT2, Table 1; AZT/K103N; MOI 0.01
Measured quantity: EC50 (µM)
Express it in µM; write the number only.

Give its EC50 value. Item: O=C(O)P(=O)(O)O [PFA, phosphonoformate, reference compound]
18.6

====

# Tested on: HIV-1LAI K65R
# Assay summary: p24 reduction assay in MT-2 cells, K65R
# Format: cell-based
# Condition parameters: Human immunodeficiency virus 1, MT2, Table 1; K65R; MOI 0.01
Measured quantity: pEC50
Hey, just a heads up that pEC50 is the negative log base 10 of the concentration in molar.

Return reported pEC50; argument: O=C(O)P(=O)(O)O [PFA, phosphonoformate, reference compound]
4.24

====

# Test system: HIV-1LAI M41L/T215Y
# Assay summary: p24 reduction assay in MT-2 cells, M41L/T215Y
# Type: cell-based
# Condition parameters: Table 5; M41L/T215Y; mean ± SD
As shown below, each of these compounds has a reported EC50 value.
Write it as a number; the unit nM goes unstated.

Worked cases, answers included:
Chem smiles: CCCCCCCCCCCCCCCCCCOC[C@H](COP(=O)(O)C(=O)O)OC
Target or system: HIV-1LAI M41L/T215Y
Result units: nM
Measurement: 180
--
Chem smiles: CCCCCCCCCCCCCCCCCCOC[C@H](COP(=O)(O)C(=O)O)OCC
Target or system: HIV-1LAI M41L/T215Y
Result units: nM
Measurement: 300

Next:
Consider the compound shown here: CCCCCCCCCCCCCCCCCCOC[C@@H](O)COP(=O)(O)C(=O)O What is its recorded EC50?
940

====

# Test system: HIV-1LAI 4XAZT/K103N
# Assay summary: p24 reduction assay in MT-2 cells, 4XAZT/K103N
# Format: cell-based
# Condition parameters: Table 1; AZT/K103N; MOI 0.01; read-out: EC50
Measured quantity: pEC50
Here pEC50 is given on a logarithmic scale as minus log10 of the concentration in mol/L.

Compound: CCCCCCCCCCCCCCCCCCOC[C@H](COP(=O)(O)C(=O)O)OCC [EB-PFA, 1-O-octadecyl-2-O-ethyl-sn-glycero-3-PFA]
Measurement: 6.10

Could you now consider this next compound?
What value of pEC50 has been reported for the following compound? CCCCCCCCCCCCCCCCCCOC[C@@H](O)COP(=O)(O)C(=O)O [B-PFA, 1-O-octadecyl-sn-glycero-3-PFA]
5.57

====

# Tested on: HIV-1LAI W88S
# Assay summary: p24 reduction assay in MT-2 cells, W88S
# Type: cell-based
# Condition parameters: Table 7; W88S
Measured quantity: pEC50
Scale explanation: pEC50 corresponds to minus log10 of a concentration expressed in moles per litre.

Example compounds with recorded pEC50:
Chem smiles: CCCCCCCCCCCCCCCCCCOC[C@@H](O)COP(=O)(O)C(=O)O
Measurement: 4.68
//
Chem smiles: CCCCCCCCCCCCCCCCCCOC[C@H](COP(=O)(O)C(=O)O)OC
Measurement: 5.60

Here is the next item to consider.
Recorded pEC50 of CCCCCCCCCCCCCCCCCCOC[C@H](COP(=O)(O)C(=O)O)OCC , please.
5.62

====

# Tested on: HIV-1LAI S117T/L214F
# Assay summary: p24 reduction assay in MT-2 cells, S117T/L214F
# Assay type: cell-based
# Condition parameters: Human immunodeficiency virus 1, MT2; Table 8; S117T/L214F; read-out: AZT EC50
Measured quantity: EC50
Value and unit, in that order.

Name the recorded EC50 for Cc1cn([C@H]2C[C@H](N=[N+]=[N-])[C@@H](CO)O2)c(=O)[nH]c1=O .
22 nM

====

# Test system: HIV-1LAI 4XAZT/K103N
# Assay summary: p24 reduction assay in MT-2 cells, 4XAZT/K103N
# Type: cell-based
# Condition parameters: Table 5; 4XAZT/K103N relative to wild type virus
# Description: Cells. […] Antiviral Susceptibility Assays. The antiviral activity of each compound was determined by inoculating MT-2 cells with HIV-1LAI at a multiplicity of infection (MOI) of 0.01 TCID50/cell, followed by incubation in the presence of three-fold serial drug dilutions (3 wells per dilution) (see Mellors, et. al., Antimicrob. Agents Chemother. 39:1087-1092). […] The fold-resistance of a test virus is calculated by dividing the IC50 of the test virus by the IC50 of the HIV-1LAI control virus. […]
Measured quantity: Fold-resistance

Molecule: CCCCCCCCCCCCCCCCCCOC[C@H](COP(=O)(O)C(=O)O)OCC
Measurement: (1.4)
//
Molecule: O=C(O)P(=O)(O)O [PFA, phosphonoformate, reference compound]
Measurement: (1.1)
//
Molecule: CCCCCCCCCCCCCCCCCCOC[C@H](COP(=O)(O)C(=O)O)OC
Measurement: (1.2)
//
Molecule: CCCCCCCCCCCCCCCCCCOC[C@@H](O)COP(=O)(O)C(=O)O
Measurement: (2.2)

====

# Tested on: HIV-1LAI (wild type, control)
# Assay summary: p24 reduction assay in MT-2 cells, wild type virus
# Assay type: cell-based
# Condition parameters: Table 4; HIV-1LAI wild type; mean ± SD, two or three experiments; read-out: EC50
Below is a list of entries, each paired with its recorded EC50 value.
Field format: number, assumed µM, no unit text.

Observe how each entry below is paired with its result.
Molecule: CCCCCCCCCCCCCCCCCCOC[C@H](COP(=O)(O)C(=O)O)OC [MB-PFA]
Result units: µM
Measurement: 0.5
//
Molecule: CCCCCCCCCCCCCCCCCCOC[C@@H](O)COP(=O)(O)C(=O)O [B-PFA, 1-O-octadecyl-sn-glycero-3-PFA]
Result units: µM
Measurement: 1.8

Now for another entry.
Please give the measured EC50 for this molecule: CCCCCCCCCCCCCCCCCCOC[C@H](COP(=O)(O)C(=O)O)OCC [EB-PFA, 1-O-octadecyl-2-O-ethyl-sn-glycero-3-PFA]
0.7

====

# Test system: HIV-1 G2-3g (molecularly cloned isolate co-resistant to AZT and 3TC)
# Assay summary: p24 reduction assay in MT-2 cells, G2-3g
# Assay type: cell-based
# Condition parameters: Table 5; G2-3g relative to wild type virus

Compound: CCCCCCCCCCCCCCCCCCOC[C@H](COP(=O)(O)C(=O)O)OCC [EB-PFA, 1-O-octadecyl-2-O-ethyl-sn-glycero-3-PFA]
Fold-resistance: (0.5)
//
Compound: O=C(O)P(=O)(O)O [PFA, phosphonoformate, reference compound]
Fold-resistance: (0.5)
//
Compound: CCCCCCCCCCCCCCCCCCOC[C@H](COP(=O)(O)C(=O)O)OC [MB-PFA]
Fold-resistance: (0.8)
//
Compound: CCCCCCCCCCCCCCCCCCOC[C@@H](O)COP(=O)(O)C(=O)O [B-PFA, 1-O-octadecyl-sn-glycero-3-PFA]
Fold-resistance: (0.9)

====

# System: HIV-1LAI M184V
# Assay summary: p24 reduction assay in MT-2 cells, M184V
# Assay type: cell-based
# Condition parameters: Human immunodeficiency virus 1, MT2, Table 1; M184V; MOI 0.01
Measured quantity: EC50

Reported EC50 for HIV-1LAI M184V, given O=C(O)P(=O)(O)O [PFA, phosphonoformate, reference compound] ?
15.7 µM

====

# Test system: MT-2 cells
# Assay summary: In vitro selectivity index in MT-2 cells
# Assay type: cell-based
# Condition parameters: (50% cytotoxic dose/50% effective dose)×100
Measured quantity: Selectivity Index
Form rule: numeric answer, no unit written next to it.

Look at this compound and give its reported Selectivity Index. CCCCCCCCCCCCCCCCCCOC[C@H](COP(=O)(O)C(=O)O)OC [MB-PFA]
953

====

# Test system: HIV-1LAI M41L/T215Y
# Assay summary: p24 reduction assay in MT-2 cells, M41L/T215Y
# Format: cell-based
# Condition parameters: Table 5; M41L/T215Y relative to wild type virus

Compound: CCCCCCCCCCCCCCCCCCOC[C@H](COP(=O)(O)C(=O)O)OC [MB-PFA]
Fold-resistance: (0.4)
//
Compound: CCCCCCCCCCCCCCCCCCOC[C@@H](O)COP(=O)(O)C(=O)O [B-PFA, 1-O-octadecyl-sn-glycero-3-PFA]
Fold-resistance: (0.5)
//
Compound: O=C(O)P(=O)(O)O [PFA, phosphonoformate, reference compound]
Fold-resistance: (0.8)
//
Compound: CCCCCCCCCCCCCCCCCCOC[C@H](COP(=O)(O)C(=O)O)OCC [EB-PFA, 1-O-octadecyl-2-O-ethyl-sn-glycero-3-PFA]
Fold-resistance: (0.5)

====

# Test system: HIV-1LAI 4XAZT/W88S
# Assay summary: p24 reduction assay in MT-2 cells, 4XAZT/W88S
# Format: cell-based
# Condition parameters: Table 7; 4XAZT/W88S relative to wild type virus
Listed compounds paired with reported Fold-resistance

Examples with their reported Fold-resistance follow.
Compound: CCCCCCCCCCCCCCCCCCOC[C@@H](O)COP(=O)(O)C(=O)O
Measurement: 1.84 (1.6)

Compound: CCCCCCCCCCCCCCCCCCOC[C@H](COP(=O)(O)C(=O)O)OC
Measurement: 0.81 (1.8)

Report Fold-resistance for CCCCCCCCCCCCCCCCCCOC[C@H](COP(=O)(O)C(=O)O)OCC tested on HIV-1LAI 4XAZT/W88S.
0.21 (1.9)

GET /values?readout=Fold-resistance&system=HIV-1LAI 4XAZT/W88S&item= O=C(O)P(=O)(O)O [PFA, phosphonoformate, reference compound]
10.40 (1.0)
